Test system: TK-10 renal
Protocol Text: NCI tumour cell line growth inhibition, 48 h
Measured Property: TGI

| Compound | Measured Property | Recorded Value |
| --- | --- | --- |
| Fc1ccccc1C1CC(c2ccc3ccccc3c2)=Nc2ccccc2S1 (stereo not drawn) | TGI | > 100 µM |
| CCCCCCCCCCCCOP(=O)(O)OCC(N)C(=O)O (stereo not drawn) | TGI | 53 µM |
| COc1ccc(Cn2cc3c(c2-c2ccc(OC)cc2)CCc2cnoc2-3)cc1 | TGI | > 100 µM |
| O=c1[nH]c(=O)n(C2CC(O)C(CO)O2)cc1C1=NC1 (stereo not drawn) | TGI | > 100 µM |
| Cc1ccc(S(=O)(=O)OCC23CCC(CC2)C2CC23)cc1 (stereo not drawn) | TGI | > 100 µM |
| COC(=O)c1c(N)n[nH]c1N | TGI | > 100 µM |
| N#CCCC1(CCC#N)CCCCCCCCC(CCC#N)(CCC#N)C(=O)C1=O | TGI | > 100 µM |
| Cc1noc2nnn(-c3ccc(Cl)cc3)c(=O)c12 | TGI | 21.8 µM |
| COCCCNC(=O)CC(=O)NCCCOC | TGI | > 100 µM |
| CCOC(=O)Cc1nc2sc(S(N)(=O)=O)nn2c1Br | TGI | > 100 µM |
| CCOC(=O)C(Cl)(NC(=O)c1c(F)c(F)c(F)c(F)c1F)C(F)(F)F (stereo not drawn) | TGI | > 100 µM |
| O=C(NP(=O)(N1CC1)N1CC1)c1cc(I)ccc1I | TGI | > 100 µM |
| COc1cc2c(cc1C)NC(=O)/C2=C\c1cccc(Oc2ccccc2)c1 | TGI | 50.6 µM |
| CCc1ccc2nc(-c3ccc(O)cc3)sc2c1 | TGI | 35.7 µM |
| CN(C)c1ccc(C(Cc2ccc3ccccc3n2)Cc2ccc3ccccc3n2)cc1 | TGI | > 100 µM |
| O=[N+]([O-])c1cccc(-c2oc(C=Nc3ccccc3)c([N+](=O)[O-])c2-c2cccc([N+](=O)[O-])c2)c1 | TGI | > 100 µM |
| CCn1cc(C(=O)O)c(=O)c2cc3c(cc21)S(=O)(=O)CC3 | TGI | > 100 µM |
| O=C1CCC(=O)N1n1c(Cc2ccc(Cl)cc2)n[nH]c1=O | TGI | > 100 µM |
| CCC(=O)c1c(NOC2OC(COC(C)=O)C(OC(C)=O)C(OC(C)=O)C2OC(C)=O)nc(OC)n(C)c1=O (stereo not drawn) | TGI | > 100 µM |
| Cc1cc(C)nc(SC(C)C(=O)N/N=C/c2ccc(OCc3ccccc3)cc2)n1 (stereo not drawn) | TGI | > 100 µM |
| CC1OC(OC2C(O[C@H]3CC[C@@]4(C)C(=CC[C@H]5[C@@H]6C[C@@H]7O[C@]8(CC[C@H](C)CN8)[C@@H](C)[C@@H]7[C@@]6(C)CC[C@@H]54)C3)OC(CO)C(O)C2OC2OC(CO)C(O)C(O)C2O)C(O)C(O)C1O (stereo partly drawn) | TGI | 31.1 µM |
| CC(C)[Si](OC1=CCC[C@H]2NC(=O)[C@@H](Cc3ccccc3)[C@@]12C)(C(C)C)C(C)C | TGI | 21.7 µM |
| c1ccc2c(c1)ncn2C1CCCCO1 (stereo not drawn) | TGI | > 100 µM |
| CN1CCN(c2ccc3nc(-c4ccc5nc(-c6ccc(OCCC(C)(C)C)cc6)[nH]c5c4)[nH]c3c2)CC1 | TGI | 38.8 µM |
| COc1ccc2c(c1)C(=O)c1c-2c(Nc2ccc(Cl)cc2)nc2ccccc12 | TGI | 34.3 µM |
| Fc1ccc2nc3n(c2c1)C(c1c(Cl)cccc1Cl)SC3 (stereo not drawn) | TGI | > 100 µM |
| CCOC(=O)C1=C(C)N(c2ccc(C)cc2)C2=C(C(=O)N(c3ccccc3)C2c2ccccc2)C1c1ccccc1 (stereo not drawn) | TGI | > 25 µM |
| CN(C)c1nncc2[nH]cnc12 | TGI | > 100 µM |
| Cc1cc(C)nc(NS(=O)(=O)c2ccc(Nc3c4ccc(Cl)cc4nc4c(C(=O)Nc5ccc(S(N)(=O)=O)cc5)cccc34)cc2)n1 | TGI | 89.6 µM |
| CCC1CCc2nc3sc(C(=O)Nc4cccc(F)c4)c(N)c3cc2C1 (stereo not drawn) | TGI | > 100 µM |
| COc1ccc(/C=C2\N=C(c3ccccc3)N(N=C3NC(=O)CC(=O)N3)C2=O)cc1 | TGI | > 100 µM |
| COc1ccc2oc(OC)c(CC=C(C)C)c(=O)c2c1C | TGI | > 100 µM |
| CCCCN1C(=O)c2c(-c3sccc3N)sc(-c3sccc3N)c2C1=O | TGI | 72.5 µM |
| Nc1nc(N)c2ncn(Cc3ccccc3CCl)c2n1 | TGI | > 100 µM |
| CC(=O)c1ccc(NC(=O)C(=O)Nn2c(=S)[nH]c3ccccc3c2=O)cc1 | TGI | > 100 µM |
| N#C/C(=C\c1cc(Cl)cc(Cl)c1)c1ccccn1 | TGI | > 100 µM |
| CC1(Cl)CCC2(CC(Br)=CC3OC32C)CC1Br (stereo not drawn) | TGI | > 100 µM |
| CCC1CN2CCc3c([nH]c4ccccc34)C2C[C@@H]1CC(=O)N(C)C (stereo partly drawn) | TGI | > 100 µM |
| CCCCS(=O)(=O)CCC(N)C(=O)O (stereo not drawn) | TGI | > 100 µM |
| C/C(=C/C(=O)Nn1c(Cc2ccccc2)n[nH]c1=O)C(=O)O | TGI | > 100 µM |
| CCCCCCCCCc1cccc(N2C(N)=NC(N)=NC2(C)C)c1 | TGI | 1.48 µM |
| CC1OC2(CC(OCc3ccccc3)C1OCc1ccccc1)OCCO2 (stereo not drawn) | TGI | > 100 µM |
| O=C(/C=C/c1ccc(/C=C/C(=O)c2ccc(O)cc2)cc1)c1ccc(O)cc1 | TGI | > 100 µM |
